test: Lipophilicity, logD of compound in n-octanol and buffer at pH 7.4 by LC-MS analysis; type: physicochemical
Label YES when logD is strictly below 3; otherwise label NO.

• Cc1cc(F)ccc1CS(=O)(=O)Nc1ccc(N2C(=O)CC(=O)Nc3c2ccc2ccccc32)cn1 = YES
• Cc1cc(F)ccc1CS(=O)(=O)Nc1ccc(N2C(=O)CC(=O)Nc3c2ccc2ccccc32)nc1 = YES
• O=C1CC(=O)N(c2ccc(NS(=O)(=O)Cc3ccccc3Cl)cc2)c2ccc3ccccc3c2N1 = NO
• O=C1CC(=O)N(c2ccc(NS(=O)(=O)c3cccnc3F)cc2)c2ccc3ccccc3c2N1 = YES
• O=C1CC(=O)N(c2ccc(NS(=O)(=O)c3ccc(F)cc3Cl)cc2)c2ccc3ccccc3c2N1 = NO
• O=C1CC(=O)N(c2ccc(NS(=O)(=O)Cc3ccc(F)cc3Cl)cc2)c2ccc3ccccc3c2N1 = NO
• O=C1CC(=O)N(c2ccc(NS(=O)(=O)c3cc(F)ccc3Cl)cc2)c2ccc3ccccc3c2N1 = NO

---

assay: Plasma protein binding in unknown origin; format: ADME, cell-free; conditions: read-out: PPB (converted)
List of fraction unbound values.
attribute-measured: fraction unbound

- O=C1CC(=O)N(c2ccc(NS(=O)(=O)c3cccnc3F)cc2)c2ccc3ccccc3c2N1: 0.06
- O=C1CC(=O)N(c2ccc(NS(=O)(=O)Cc3ccc(F)cc3Cl)cc2)c2ccc3ccccc3c2N1: < 0.02
- O=C1CC(=O)N(c2ccc(NS(=O)(=O)c3ccc(F)cc3Cl)cc2)c2ccc3ccccc3c2N1: < 0.02
- Cc1cc(F)ccc1CS(=O)(=O)Nc1ccc(N2C(=O)CC(=O)Nc3c2ccc2ccccc32)nc1: 0.05
- Cc1cc(F)ccc1S(=O)(=O)Nc1ccc(N2C(=O)CC(=O)Nc3c2ccc2ccccc32)cc1: < 0.02
- O=C1CC(=O)N(c2ccc(NS(=O)(=O)Cc3ccccc3Cl)cc2)c2ccc3ccccc3c2N1: < 0.02
- Cc1cc(F)ccc1CS(=O)(=O)Nc1ccc(N2C(=O)CC(=O)Nc3c2ccc2ccccc32)cn1: 0.03
- Cc1cc(F)ccc1CS(=O)(=O)Nc1ccc(N2C(=O)CC(=O)Nc3c2ccc2ccccc32)cc1: < 0.02
- O=C1CC(=O)N(c2ccc(NS(=O)(=O)c3cc(F)ccc3Cl)cc2)c2ccc3ccccc3c2N1: < 0.02

---

assay: Octanol/PBS partition coefficient, log D of the radiolabeled compound at 420 to 460 kBq at pH 7.4 by gamma-counting analysis; assay type: physicochemical; details: dose 420-460 kBq
List of logD values.
attribute-measured: logD

* Cc1cc([18F])ccc1CS(=O)(=O)Nc1ccc(N2C(=O)CC(=O)Nc3c2ccc2ccccc32)cc1 | 3.43
* Cc1cc([18F])ccc1S(=O)(=O)Nc1ccc(N2C(=O)CC(=O)Nc3c2ccc2ccccc32)cc1 | 3.5

---

List of IC50 values.
target: P2X purinoceptor 4 (Homo sapiens); test: Antagonist activity at human P2X4 receptor overexpressed in human 1321N1 cells assessed as inhibition of ATP-induced calcium responses by Fluo-4 AM/Ca2+ Flux assay; assay type: cell-based; details: read-out: IC50
Sequence (Q99571 whole entry): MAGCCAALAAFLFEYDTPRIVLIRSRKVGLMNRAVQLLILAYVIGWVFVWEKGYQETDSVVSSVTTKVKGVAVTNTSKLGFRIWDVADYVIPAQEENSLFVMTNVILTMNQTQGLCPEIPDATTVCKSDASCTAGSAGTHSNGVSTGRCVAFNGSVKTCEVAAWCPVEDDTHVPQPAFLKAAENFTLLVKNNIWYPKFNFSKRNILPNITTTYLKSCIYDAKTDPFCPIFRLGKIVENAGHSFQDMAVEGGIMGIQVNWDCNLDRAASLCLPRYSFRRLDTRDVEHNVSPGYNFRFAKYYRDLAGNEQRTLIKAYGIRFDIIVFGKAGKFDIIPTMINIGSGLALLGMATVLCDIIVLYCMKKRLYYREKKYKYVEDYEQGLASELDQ
attribute-measured: IC50 (nM)

- O=C1CC(=O)N(c2ccc(NS(=O)(=O)c3c(Cl)cccc3Cl)cc2)c2ccc3ccccc3c2N1: 650
- COc1cc(F)ccc1S(=O)(=O)Nc1ccc(N2C(=O)CC(=O)Nc3c2ccc2ccccc32)cc1: 59
- O=C1CC(=O)N(c2ccc(NC(=O)c3cccnc3Cl)cc2)c2ccc3ccccc3c2N1: 780
- O=C1CC(=O)N(c2ccc(NS(=O)(=O)c3ccc(F)cc3Br)cc2)c2ccc3ccccc3c2N1: 64
- O=C(Cc1cc(F)ccc1Cl)Nc1ccc(N2C(=O)CC(=O)Nc3c2ccc2ccccc32)cc1: 442
- Nc1ccc(N2C(=O)CC(=O)Nc3c2ccc2ccccc32)nc1: 6460
- Cc1cc(F)ccc1CS(=O)(=O)Nc1ccc(N2C(=O)CC(=O)Nc3c2ccc2ccccc32)cn1: 14
- Cc1cccc(Cl)c1S(=O)(=O)Nc1ccc(N2C(=O)CC(=O)Nc3c2ccc2ccccc32)cc1: 385
- O=C1CC(=O)N(c2ccc(NS(=O)(=O)c3ccccc3Cl)cc2)c2ccc3ccccc3c2N1: 445
- Cc1cc(Br)ccc1CS(=O)(=O)Nc1ccc(N2C(=O)CC(=O)Nc3c2ccc2ccccc32)cc1: 97
- Nc1ccc(N2C(=O)CC(=O)Nc3c2ccc2ccccc32)cn1: 9920
- COc1cc(Br)ccc1S(=O)(=O)Nc1ccc(N2C(=O)CC(=O)Nc3c2ccc2ccccc32)cc1: 344
- O=C1CC(=O)N(c2ccc(NS(=O)(=O)c3cccnc3Cl)cc2)c2ccc3ccccc3c2N1: 318
- O=C1CC(=O)N(c2ccc(NS(=O)(=O)Cc3c(Cl)cccc3Cl)cc2)c2ccc3ccccc3c2N1: 74
- O=C1CC(=O)N(c2ccc(NS(=O)(=O)c3cc(Br)ccc3Cl)cc2)c2ccc3ccccc3c2N1: 175
- Nc1ccc(N2C(=O)CC(=O)Nc3c2ccc2ccccc32)cc1: 990
- O=C1CC(=O)N(c2ccc(NS(=O)(=O)Cc3ccccc3Cl)cn2)c2ccc3ccccc3c2N1: 17
